Hey, just so you know, these numbers are from the supplement of paper PMC10126150.

- Test system: ATP;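 note: ATP exposure 15 min at 22 °C before imaging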
- experimental protocol: switch fluorescence ratio, 500 uM ATP over buffer (Cy3 cluster intensity, sum of 5 cycles each) (fold (ratio)); higher = stronger signal-on switching upon ATP binding; sequences stand for … in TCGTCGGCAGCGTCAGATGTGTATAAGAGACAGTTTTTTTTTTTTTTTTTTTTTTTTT…TC
- test context: aptamer strand: ATP DNA aptamer (quencher-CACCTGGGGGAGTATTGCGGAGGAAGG + anchor), 100 nM annealed; ATP concentration: 500 uM
So I've got a bunch of sequences here, and I need their switch fluorescence ratio values.

| macromolecule sequence | switch fluorescence ratio |
| --- | --- |
| AGAGGCTGTT | 1.03 |
| TTTTTGCGTC | 1.03 |
| TAAGGACAGG | 1.05 |

// batch mode: one switch fluorescence ratio value per listed entry
1. CTTGTTAGGG
2. TGCTTCTCGA
3. AGGGGCAACT
4. CATACTTTGG

1: 0.996; 2: 0.991; 3: 1; 4: 1.01

// batch mode: one switch fluorescence ratio value per listed entry
1. TGACAACCGG
2. TATTGCGGCC
3. CTAATTAGAT
4. TATTCACATT
5. TTTTAGTGGC
6. GGTTTTAGGT
7. AGGTTTGCTC
8. ACGTTTTTGC

1: 1.05; 2: 1.02; 3: 1; 4: 0.994; 5: 1.02; 6: 0.988; 7: 1.01; 8: 1.02

// batch mode: one switch fluorescence ratio value per listed entry
1. ATATTTAATC
2. AGATTTAGGG
3. CCCGTATACA
4. TCCTCATGTT
5. GAGGGGACGG
6. TCATAGTTCA

1. 0.999
2. 0.986
3. 1.21
4. 1.07
5. 0.996
6. 1.03

====

- System: ATP;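 note: ATP exposure 15 min at 22 °C before imaging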
- experimental protocol: switch fluorescence ratio, 500 uM ATP over buffer (Cy3 cluster intensity, sum of 5 cycles each) (fold (ratio)); higher = stronger signal-on switching upon ATP binding; sequences stand for … in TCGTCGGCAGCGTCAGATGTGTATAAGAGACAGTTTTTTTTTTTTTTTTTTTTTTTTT…TC
- test context: aptamer strand: ATP DNA aptamer (quencher-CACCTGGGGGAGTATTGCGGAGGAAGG + anchor), 100 nM annealed; ATP concentration: 500 uM
So I've got a bunch of sequences here, and I need their switch fluorescence ratio values.

// batch mode: one switch fluorescence ratio value per listed entry
1. AATAAATGCT
2. ATAAAAAGGA
3. TTAACTTGAG
4. TAATACGTTA
5. TTTTTTCCCG
6. ATATTTGGAG
7. TTTAGTGTTT
8. TATTGAGGGT

0.99
1.01
0.983
1.2
1.09
0.998
1
0.981

====

- Test system: ATP;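 note: ATP exposure 15 min at 22 °C before imaging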
- experimental protocol: switch fluorescence ratio, 500 uM ATP over buffer (Cy3 cluster intensity, sum of 5 cycles each) (fold (ratio)); higher = stronger signal-on switching upon ATP binding; sequences stand for … in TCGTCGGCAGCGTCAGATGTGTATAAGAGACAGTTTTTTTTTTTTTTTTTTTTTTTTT…TC
- test context: aptamer strand: ATP DNA aptamer (quencher-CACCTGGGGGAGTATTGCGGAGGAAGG + anchor), 100 nM annealed; ATP concentration: 500 uM
assay endpoint: switch fluorescence ratio
One number for each entry.

Some entries whose results are on file:
| macromolecule sequence | switch fluorescence ratio |
| --- | --- |
| TCGTAAATTT | 0.973 |
| GGTGGGTTGG | 0.982 |
| GGATTATACA | 1.02 |
| AAACAGCTTA | 1.05 |
| TCGTGAGCGG | 0.996 |

// batch mode: one switch fluorescence ratio value per listed entry
1. GGGCTTCTTT
2. TCTGGGGAAT
3. AAGTAGTTCG
4. AGGCGTGAGG
5. TTACTTGCAT
6. AGAGTATTTA
7. TTAATTGTTC
8. AAGGCATCAG

[0.996, 1, 0.982, 1.01, 1.07, 0.991, 1.06, 0.992]

====

So I've got a bunch of sequences here, and I need their switch fluorescence ratio values.
- Test system: ATP;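 note: ATP exposure 15 min at 22 °C before imaging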
- experimental protocol: switch fluorescence ratio, 500 uM ATP over buffer (Cy3 cluster intensity, sum of 5 cycles each) (fold (ratio)); higher = stronger signal-on switching upon ATP binding; sequences stand for … in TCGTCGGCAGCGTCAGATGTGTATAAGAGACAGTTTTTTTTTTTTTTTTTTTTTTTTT…TC
- test context: aptamer strand: ATP DNA aptamer (quencher-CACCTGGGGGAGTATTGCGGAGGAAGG + anchor), 100 nM annealed; ATP concentration: 500 uM
One number for each entry.

| macromolecule sequence | switch fluorescence ratio |
| --- | --- |
| ACTGACTGGT | 1.06 |
| GACACGTGGG | 1.02 |
| ATATGTAGGT | 0.998 |

// below: switch fluorescence ratio requested for another sequence
Value of measured switch fluorescence ratio for the entry "CAAACATTTT" : 0.98

====

- Tested on: ATP;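 note: ATP exposure 15 min at 22 °C before imaging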
- experimental protocol: switch fluorescence ratio, 500 uM ATP over buffer (Cy3 cluster intensity, sum of 5 cycles each) (fold (ratio)); higher = stronger signal-on switching upon ATP binding; sequences stand for … in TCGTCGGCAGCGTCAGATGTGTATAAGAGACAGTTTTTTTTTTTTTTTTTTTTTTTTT…TC
- test context: aptamer strand: ATP DNA aptamer (quencher-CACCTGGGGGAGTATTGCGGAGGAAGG + anchor), 100 nM annealed; ATP concentration: 500 uM
Where switch fluorescence ratio equals or exceeds 1, the correct label is YES; where it does not, the label is NO.

Threshold query (switch fluorescence ratio >= 1) on "AGTAATTGAC" YES

Threshold query (switch fluorescence ratio >= 1) on "AACTCATATT" NO

Threshold query (switch fluorescence ratio >= 1) on "GTAGTGGCGA" YES

Threshold query (switch fluorescence ratio >= 1) on "ATCTAATTAG" NO

Threshold query (switch fluorescence ratio >= 1) on "CCGTAAGAAT" YES

Threshold query (switch fluorescence ratio >= 1) on "ATAGACAGAC" YES

Threshold query (switch fluorescence ratio >= 1) on "CCCGGGTAGG" YES

Threshold query (switch fluorescence ratio >= 1) on "CAGATATGGC" YES

Threshold query (switch fluorescence ratio >= 1) on "TACTTCGAGA" YES

Threshold query (switch fluorescence ratio >= 1) on "AGTGTGGGCT" YES

Threshold query (switch fluorescence ratio >= 1) on "CCAGCGCACG" YES

Threshold query (switch fluorescence ratio >= 1) on "ATTTTATCTC" YES

====

- Test system: ATP;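 note: ATP exposure 15 min at 22 °C before imaging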
- experimental protocol: switch fluorescence ratio, 500 uM ATP over buffer (Cy3 cluster intensity, sum of 5 cycles each) (fold (ratio)); higher = stronger signal-on switching upon ATP binding; sequences stand for … in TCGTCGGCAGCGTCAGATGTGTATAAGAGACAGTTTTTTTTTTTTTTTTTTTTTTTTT…TC
- test context: aptamer strand: ATP DNA aptamer (quencher-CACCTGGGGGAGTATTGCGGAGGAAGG + anchor), 100 nM annealed; ATP concentration: 500 uM
assay endpoint: switch fluorescence ratio
Give bare numbers.

Some entries whose results are on file:
| macromolecule sequence | result |
| --- | --- |
| GCGGTTCGAA | 0.997 |
| TAAATGGTTT | 1.02 |

Record "GGGTTTTGTT" ; system ATP; switch fluorescence ratio = 1.02

====

- Test system: ATP;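 note: ATP exposure 15 min at 22 °C before imaging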
- experimental protocol: switch fluorescence ratio, 500 uM ATP over buffer (Cy3 cluster intensity, sum of 5 cycles each) (fold (ratio)); higher = stronger signal-on switching upon ATP binding; sequences stand for … in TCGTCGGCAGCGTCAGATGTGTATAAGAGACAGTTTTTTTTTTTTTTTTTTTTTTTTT…TC
- test context: aptamer strand: ATP DNA aptamer (quencher-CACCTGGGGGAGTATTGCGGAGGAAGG + anchor), 100 nM annealed; ATP concentration: 500 uM
assay endpoint: switch fluorescence ratio
Answers are plain numbers.

| macromolecule sequence | assay endpoint | result |
| --- | --- | --- |
| AGTTTTTTCG | switch fluorescence ratio | 0.973 |

// batch mode: one switch fluorescence ratio value per listed entry
1. TTAAGGCGCT
2. TTGGGCTATT
3. AGGATTATGT
4. GGGTCAGAGA

1. 0.976
2. 1.01
3. 1.01
4. 0.987

Value of measured switch fluorescence ratio for the entry "AGGTTCTATT" : 0.986

====

- Tested on: ATP;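 note: ATP exposure 15 min at 22 °C before imaging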
- experimental protocol: switch fluorescence ratio, 500 uM ATP over buffer (Cy3 cluster intensity, sum of 5 cycles each) (fold (ratio)); higher = stronger signal-on switching upon ATP binding; sequences stand for … in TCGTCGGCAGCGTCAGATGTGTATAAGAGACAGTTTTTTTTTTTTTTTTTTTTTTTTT…TC
- test context: aptamer strand: ATP DNA aptamer (quencher-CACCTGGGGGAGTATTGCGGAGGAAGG + anchor), 100 nM annealed; ATP concentration: 500 uM
So I've got a bunch of sequences here, and I need their switch fluorescence ratio values.
Numbers only.

Some entries whose results are on file:
| macromolecule sequence | switch fluorescence ratio |
| --- | --- |
| TAGCTAGCGT | 1.01 |
| GTAATAGTTT | 1 |
| TGAGGAGGGC | 1.02 |
| CGTGATGTTT | 1 |

// batch mode: one switch fluorescence ratio value per listed entry
1. TGTGTTATTT
2. GGCTCAGTTT
3. GGGGTCGTTT
4. TGGATAGCGC
5. TCCGTTTCGG
6. GGGGGGCCTT
7. GGTGCTGGGG
8. GACAACTTTT

[0.999, 0.979, 0.995, 1.01, 0.997, 1, 1.01, 0.991]

// batch mode: one switch fluorescence ratio value per listed entry
1. AGGGATGTTA
2. GGTTTCATGA
3. GATAGATAGA
4. CCTATTTATT
5. TAGGTTGCGA
6. AGTGGGTAAG
7. GGTGTTAGAC
8. ATGTCAGCGC

[0.991, 1.01, 0.996, 1.01, 0.996, 0.987, 0.976, 1]
